- test.summary: viability gain of MRP-1-high H69AR cells under doxorubicin, pilot screen, MRP-1 activator project, CellTiter-Glo, duplicate (AID 807);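 note: compound pretreatment 18-22 h then 72 h combined with doxorubicin; 0% = doxorubicin alone and 100% = vehicle without doxorubicin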
- run.parameters: H69AR viability with doxorubicin, CellTiter-Glo luminescence; at 10 µM; hits give high values
metric: viability increase (%)
# output: bare number, implied unit %

# input Query viability increase for Cc1ccc(-n2ncc3c(=O)[nH]c(SCC(=O)N4CCCCC4)nc32)cc1
# output -4.87

# input Query viability increase for Cc1sc2ncnc(SCC(=O)c3cccs3)c2c1C
# output -1.23

# input Query viability increase for CCc1ccc(Cn2nnc(C(=O)NCc3ccccc3OC)c2N)cc1
# output -2.2

# input Query viability increase for CC(C)Sc1nc(O)c(Cc2ccccc2)c(=O)[nH]1
# output -0.54

# input Query viability increase for c1ccc2c(c1)nc(N1CCOCC1)c1nnnn12
# output -3.18

# input Query viability increase for O=C(COC(=O)C(O)c1ccccc1)c1ccc2c(c1)OCCO2 (stereo unspecified)
# output -0.39

###

- test.summary: inhibitors of the yeast RAM network, pilot screen, dse1pr::URA3 reporter, 5-FOA selection (AID 869);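 note: 0% = DMSO wells with no growth and 100% = 10 µM 1-NA-PP1 with full growth; RAM network block rescues cells from 5-FOA so hits raise OD615 growth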
- run.parameters: S. cerevisiae dse1pr::URA3 5-FOA growth, OD615, 2 d; at 10 µM; hits give high values; strain carries analog-sensitive mutant Cbk1 kinase
Label T when inhibition >= 1%; otherwise F.

# input Test whether the molecule COc1ccc(S(=O)(=O)C(C#N)c2nc3ccccc3nc2N2CCC(C)CC2)cc1 (stereo not given) records inhibition of 1% or higher.
# output T

# input Test whether the molecule O=C(NCc1ccc(N2CCCC2=O)cc1)c1cn(CCc2ccccc2)nn1 records inhibition of 1% or higher.
# output T

# input Test whether the molecule O=C(O)C1C2C=CC(C2)C1C(=O)NCCc1cccc(Cl)c1 (stereo not given) records inhibition of 1% or higher.
# output F

# input Test whether the molecule CC(=O)C1=C(C)Nc2cc(C(F)(F)F)ccc2S1 records inhibition of 1% or higher.
# output T

# input Test whether the molecule O=C1CCc2cc(S(=O)(=O)N3CCCC3C(=O)N3CCN(c4ccccc4)CC3)ccc2N1 (stereo not given) records inhibition of 1% or higher.
# output T

# input Test whether the molecule CC(=O)N(CCCc1ccc(C(C)(C)C)cc1)CCCN(C)C records inhibition of 1% or higher.
# output F

# input Test whether the molecule Cc1noc(/C=C/N(C)C)c1S(=O)(=O)N1CCCC(C(=O)NC2CCCCC2C)C1 (stereo not given) records inhibition of 1% or higher.
# output T

# input Test whether the molecule CCOC(=O)c1[nH]c(C)c(C(=O)Nc2ccc(C)c(C)c2)c1C records inhibition of 1% or higher.
# output T

# input Test whether the molecule COC(=O)c1ccc(NS(=O)(=O)c2ccc3c(c2)oc(=O)n3C)cc1 records inhibition of 1% or higher.
# output F

# input Test whether the molecule CC(=O)c1cccc(NC(=O)CN(c2ccc(F)cc2)S(C)(=O)=O)c1 records inhibition of 1% or higher.
# output F

###

- test.summary: growth inhibitors of H69AR lung tumor, primary screen, human, duplicate replicates (AID 580);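 note: 100% = mean luminescence of untreated wells and 0% = no signal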
- run.parameters: H69AR lung tumor cells viability, ATP luminescence, 72 h; at 10 µM
The source made the active and inactive calls.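 How the source made its calls: active means viability at or under a set limit in both replicates, limit being median viability minus 3 SD (cut at about 48% in these data, passing the limit was not always enough); inconclusive means at or under the limit in just one replicate; inactive means at or above the limit in both replicates.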
Lab note: assign the record to one of active, inactive

# input Recorded call for COc1ccc(CCNC(=O)COc2ccc(S(=O)(=O)N3CCOCC3)cc2)cc1 ?
# output inactive

# input Recorded call for COc1ccc(-c2cc(C(=O)N3CCN(Cc4ccccc4)CC3)no2)cc1OC ?
# output inactive

# input Recorded call for COc1ccccc1Nc1nc(N)nc(CSc2nccc(C)n2)n1 ?
# output inactive

# input Recorded call for CCOC(=O)c1[nH]c2ccccc2c1NC(=O)C(C)(C)C ?
# output inactive

# input Recorded call for CCC1(CC)NC(=O)NC1=O ?
# output inactive

# input Recorded call for COc1cc2c(cc1NC(=O)COC(=O)Cn1cnc3ccccc31)oc1ccccc12 ?
# output inactive

# input Recorded call for COc1cccc(OC)c1C(=O)Nc1ccc(CN2CCCCC2)cc1 ?
# output inactive

# input Recorded call for CCN(CC)Cc1csc(C(N)=O)c1 ?
# output inactive

# input Recorded call for COc1cccc(CNC(=O)C2CCN(c3cnccn3)CC2)c1 ?
# output inactive

# input Recorded call for CCCSc1nc2c(cnn2-c2ccc(Cl)cc2)c(=O)[nH]1 ?
# output inactive

# input Recorded call for CN1CCN(C(=O)CCC(=O)c2ccc(F)cc2)CC1 ?
# output inactive

# input Recorded call for NS(=O)(=O)c1cc2c(cc1Cl)NC(C1C[C@H]3C=C[C@@H]1C3)NS2(=O)=O (stereo not given in full) ?
# output inactive

# input Recorded call for CCN(CC)CCCN1C(=O)C(=O)/C(=C(/O)c2ccccc2)C1c1ccccn1 (stereo not given) ?
# output inactive

# input Recorded call for CCOC(=O)CSc1nc2cc(C(=O)NCc3ccco3)ccc2c(=O)n1C1CCCCC1 ?
# output inactive

# input Recorded call for CCOC(=O)C1CCCN(C(=O)c2cc(=O)c3ccccc3o2)C1 (stereo not given) ?
# output inactive

# input Recorded call for COC(=O)C(C)Sc1nc2c(c(=O)n(C)c(=O)n2C)n1Cc1cccc(C)c1 (stereo not given) ?
# output inactive

# input Recorded call for CCc1cc(C(=O)OC)c(NC(=O)CCC(=O)O)s1 ?
# output inactive

# input Recorded call for CCCn1c(C)cc(C(=O)COc2ncnc3sccc23)c1C ?
# output inactive

# input Recorded call for Cc1ccc(-c2noc(CCC(=O)NCCc3ccccc3Cl)n2)cc1 ?
# output inactive

# input Recorded call for Cc1cccc(OCC(=O)N(Cc2cccs2)C2CCS(=O)(=O)C2)c1C (stereo not given) ?
# output inactive

# input Recorded call for Cc1cc(C)n2cc(CSc3nnnn3-c3ccc(Cl)cc3)nc2n1 ?
# output inactive

# input Recorded call for O=C(CSc1nnc2ccccn12)NCCN1C(=O)CSC1=O ?
# output inactive

# input Recorded call for C=CCn1c(=O)c2ccccc2n2c(SCC(=O)Nc3cc(C)on3)nnc12 ?
# output inactive

# input Recorded call for CCCn1c2c(c(O)c(C(=O)NC)c1=O)CCCC2 ?
# output inactive

# input Recorded call for O=C(CN(C(=O)CCC(=O)Nc1nccs1)c1ccccc1F)NCC1CCCO1 (stereo not given) ?
# output inactive

# input Recorded call for NS(=O)(=O)c1cc2c(cc1Cl)NC(C(Cl)Cl)NS2(=O)=O (stereo not given) ?
# output inactive

# input Recorded call for Cc1ccccc1-c1nc(Cc2ccccc2)no1 ?
# output inactive

# input Recorded call for CCOC(=O)C1=C(O)CCn2c1nc1ccccc12 ?
# output inactive

# input Recorded call for Cc1ncc(CO)c2c1OC(C)(C)OC2 ?
# output inactive

# input Recorded call for CCc1cc2ccc(C)cc2nc1SCC(=O)N1CCN(C(=O)c2ccco2)CC1 ?
# output inactive

# input Recorded call for COc1ccc(Cn2c(-c3ccco3)nc3oc4ccccc4c(=O)c3c2=O)cc1 ?
# output inactive

# input Recorded call for NC(Cc1ccc(Oc2ccc(O)cc2)cc1)C(=O)O (stereo not given) ?
# output inactive

# input Recorded call for Cc1cccc(-c2cc3nc4c(c(N5CCOCC5)n3n2)CCCC4)c1 ?
# output inactive

# input Recorded call for O=S(=O)(NCc1ccco1)c1cccc2cccnc12 ?
# output inactive

# input Recorded call for CCCCCCCC(=O)OCC(=O)[C@@]1(O)CC[C@H]2[C@@H]3CCC4=CC(=O)CC[C@]4(C)[C@H]3[C@@H](O)C[C@@]21C ?
# output inactive

# input Recorded call for CC[N+](C)(C)c1cccc(O)c1 ?
# output inactive

# input Recorded call for COc1ccc(C2CC(=O)c3c(C)nc(N4CCN(c5ccccc5)CC4)nc3C2)cc1 (stereo not given) ?
# output inactive

# input Recorded call for O=S1(=O)N=C(Nc2nc3c(s2)CCCC3)c2ccccc21 ?
# output inactive

# input Recorded call for COc1ccc(OC)c(Nc2cc(-c3ccccc3)nc(N)n2)c1 ?
# output active

# input Recorded call for CCOC(=O)Cc1c(C)c2c(O)cc(O)cc2oc1=O ?
# output inactive

# input Recorded call for CC(C)C[C@H](NC(=O)[C@@H]1O[C@H]1C(=O)O)C(=O)NCCCCN=C(N)N ?
# output inactive

# input Recorded call for O=C(C1CCCN(S(=O)(=O)c2ccc(Br)s2)C1)N1CCCCCC1 (stereo not given) ?
# output inactive

# input Recorded call for CCOc1cc(C(=O)NCc2nnc(SCC(=O)OC)n2C)cc(OCC)c1OCC ?
# output inactive

# input Recorded call for CCOC(=O)c1c(NCc2ccc3c(c2)OCO3)c2ccccc2[nH]c1=O ?
# output inactive

# input Recorded call for CC(=O)OCC(=O)[C@@]1(O)CC[C@H]2[C@@H]3CCC4=CC(=O)C=C[C@]4(C)[C@@]3(Cl)[C@@H](Cl)C[C@@]21C ?
# output inactive
